system.name: α5β2γ2 GABAAR (Mus musculus, UniProt P22723+P63137+Q8BHJ7)
Sequence (P22723 39-474): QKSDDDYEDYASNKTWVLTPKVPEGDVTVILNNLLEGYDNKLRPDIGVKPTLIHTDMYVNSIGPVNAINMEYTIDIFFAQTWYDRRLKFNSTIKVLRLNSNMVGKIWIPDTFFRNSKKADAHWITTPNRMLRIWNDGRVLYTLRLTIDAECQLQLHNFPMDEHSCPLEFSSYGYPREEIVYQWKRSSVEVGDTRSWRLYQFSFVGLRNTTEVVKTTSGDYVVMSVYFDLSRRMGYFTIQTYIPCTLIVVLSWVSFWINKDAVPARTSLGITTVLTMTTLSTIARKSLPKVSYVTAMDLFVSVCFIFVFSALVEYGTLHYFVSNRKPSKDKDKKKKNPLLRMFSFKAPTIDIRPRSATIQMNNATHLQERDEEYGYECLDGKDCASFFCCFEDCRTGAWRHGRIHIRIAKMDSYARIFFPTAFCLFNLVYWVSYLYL
Sequence (Q8BHJ7 32-463): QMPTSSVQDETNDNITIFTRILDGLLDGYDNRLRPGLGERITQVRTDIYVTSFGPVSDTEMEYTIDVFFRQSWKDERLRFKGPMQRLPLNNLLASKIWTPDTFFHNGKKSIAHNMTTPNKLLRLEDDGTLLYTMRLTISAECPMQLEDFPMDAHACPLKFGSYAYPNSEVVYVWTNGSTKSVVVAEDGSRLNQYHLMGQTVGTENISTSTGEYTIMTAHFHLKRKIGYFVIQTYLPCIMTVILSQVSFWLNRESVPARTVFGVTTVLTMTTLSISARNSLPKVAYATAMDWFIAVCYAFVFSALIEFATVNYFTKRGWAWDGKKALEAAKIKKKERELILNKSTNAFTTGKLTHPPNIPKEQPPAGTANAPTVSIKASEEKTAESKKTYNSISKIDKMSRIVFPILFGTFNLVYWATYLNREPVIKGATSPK
Sequence (P63137 25-512): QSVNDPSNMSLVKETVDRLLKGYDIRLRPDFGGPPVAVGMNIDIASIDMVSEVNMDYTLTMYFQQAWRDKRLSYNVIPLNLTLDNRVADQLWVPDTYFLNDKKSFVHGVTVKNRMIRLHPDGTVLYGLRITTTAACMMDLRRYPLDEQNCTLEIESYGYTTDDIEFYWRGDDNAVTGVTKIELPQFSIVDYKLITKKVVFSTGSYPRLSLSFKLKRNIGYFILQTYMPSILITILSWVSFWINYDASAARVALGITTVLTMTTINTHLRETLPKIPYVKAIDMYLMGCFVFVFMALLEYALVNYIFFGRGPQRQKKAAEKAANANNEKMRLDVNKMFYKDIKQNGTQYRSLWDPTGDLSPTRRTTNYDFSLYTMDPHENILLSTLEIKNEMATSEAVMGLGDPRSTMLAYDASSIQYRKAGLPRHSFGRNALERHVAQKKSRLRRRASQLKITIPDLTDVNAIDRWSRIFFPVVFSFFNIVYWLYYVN
assay.overview: Whole-cell GABA-activated currents in transfected HEK-293 cells (patch clamp)
stated.conditions: n = 5
Excerpt: Murine GABAAR α1-6, β1-3, γ2 and δ cDNAs subcloned into pRK-5 and pEGFP-C1 have been described previously ([Mortensen et al., 2011]). […] Patch electrodes had resistances of 4–5 MΩ and were filled with an internal solution containing (mM): 120 CsCl 1 MgCl2, 11 EGTA, 30 KOH, 10 HEPES, 1 CaCl2, and 2 K2ATP; pH – 7.2. […] Neuronal membrane currents were similarly recorded at a holding potential of −60 mV. […]
pEC50: −log10 of the molar value.
measure.name: pEC50

# structure.notation, system.name, endpoint.value
data = [
    ("NCCCC(=O)O", "α5β2γ2 GABAAR (Mus musculus, UniProt P22723+P63137+Q8BHJ7)", 5.61),
]

Data origin, for the record: paper PMC4398322
